Kindly supply the reported Percent Effect values for the records listed here.
molecular target: AMP-activated protein kinase, AMPK (Homo sapiens) (UniProt P54646+O43741+P54619+Q9UGJ0+Q9Y478+Q13131+Q9UGI9); assay: AMP-dependent Kinase enzyme assay. An in vitro enzyme assay that detects ADP turnover that is directly proportional to AMPK activity. This uses naive AMPK that is activated during the assay with MK-8722; format: functional; design: scale not given: direction of the effect not stated beside the values; settings: 30 µM
Express the result in % but write the number alone.

Give me measured Percent Effect, please, for this compound: CN(C)S(=O)(=O)N1CCC(Oc2cnccn2)CC1
-2.04

Please report the measured Percent Effect for CCn1cnnc1C1CCN(C(=O)c2ccc(Cl)s2)CC1
1.65

Give the value of Percent Effect reported for the following: O=C(NCCO)Nc1cccc(Cl)c1SC(F)F
0.408

Provide only the value of recorded Percent Effect for COc1ccc(F)c(CN2CCC3(CCC(=O)N(CC(N)=O)C3)CC2)c1
-12.6

Consider the compound OCCC1CN(C2CCC2)CCN1C1CCCC1 (stereo not given) . State its measured Percent Effect.
-6.25
